The origin of these recorded values is patent US20250057918A1.

Record form. Attribute: KD ratio: IL-18BP/IL-18Rα. Fill in for each entry.
experimental-system: T1, mouse IL-18BP (amino acids 31-194) (mouse, UniProt Q9Z0M9 29-193, biotinylated on the AviTag (BirA ligase))
T1 construct: Secreted decoy receptor; made in Expi293 cells (H7 signal peptide); the stated range is the same as for the human protein; also called mIL-18BP
T1 sequence: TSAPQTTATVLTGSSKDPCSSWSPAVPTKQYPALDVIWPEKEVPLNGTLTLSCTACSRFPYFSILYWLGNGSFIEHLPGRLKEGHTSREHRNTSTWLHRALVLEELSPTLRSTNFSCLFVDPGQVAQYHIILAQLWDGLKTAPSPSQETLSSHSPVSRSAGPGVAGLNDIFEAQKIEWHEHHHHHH
test-details: on-yeast isotherms; KD IL-18BP / KD IL-18Rα (10 µM used for NBD); on-yeast isotherms; 10 µM put in for NBD

Exam item: KD ratio: IL-18BP/IL-18Rα for mCS1 (ligand, recombinant with C-terminal hexahistidine tag in SPR) NFGRLHCTTAVIRNINDQVLFVDKRQPVFEDMTDIDQSASEPQTRLIIYGYADSRVRGKAVTLSVKDSKMSTLSCKNKIISFEEMDPPENIDDIQSDLIFFQKRVPGHNKMEFESSLYEGHFLACQKEDDAFKLILKKKDENGDKSVMFTLTNLHQS ?
Marked response: > 935

Exam item: KD ratio: IL-18BP/IL-18Rα for mC1 (ligand, recombinant with C-terminal hexahistidine tag in SPR) NFGRLHCTTAVIRNINDQVLFVDKRQPVFEDMTDIDQSASEPQTRLIIYAYVDRRLRGKAVTLSVKDSKMSTLSCKNKIISFEEMDPPENIDDIQSDLIFFQKKVPGHNKMEFESSLYEGHFLACQKEDDAFKLILKKKDENGDKSVMFTLTNLHQS ?
Marked response: > 233

Exam item: KD ratio: IL-18BP/IL-18Rα for mB1 (ligand, recombinant with C-terminal hexahistidine tag in SPR) HFGRLHCTTAVIRNINDQVLFVDKRQPVFEDMTDIDQSASEPQTRLIIYGYADSDARAKAVTLSVKDSKMSTLSCKNKIISFEEMDPPENIDDIQSDLIFFQKSVPGHNKMEFESSLYEGHFLACQKEDDAFKLILKKKDENGDKSVMFTVTNLHQS ?
Marked response: > 559

Exam item: KD ratio: IL-18BP/IL-18Rα for mCS2 (ligand, recombinant with C-terminal hexahistidine tag in SPR; also called DR-IL-18 (mCS2); DR-18 variant mCS2) HFGRLHCTTAVIRNINDQVLFVDKRQPVFEDMTDIDQSASEPQTRLIIYAYGDSRARGKAVTLSVKDSKMSTLSCKNKIISFEEMDPPENIDDIQSDLIFFQKRVPGHNKMEFESSLYEGHFLACQKEDDAFKLILKKKDENGDKSVMFTLTNLHQS ?
Marked response: > 885

Exam item: KD ratio: IL-18BP/IL-18Rα for mA7 (ligand, recombinant with C-terminal hexahistidine tag in SPR) YFGRLHCTTAVIRNINDQVLFVDKRQPVFEDMTDIDQSASEPQTRLIIYAYGDNRVRGKAVTLSVKDSKMSTLSCKNKIISFEEMDPPENIDDIQSDLIFFQKRVPGHNKMEFESSLYEGHFLACQKEDDAFKLILKKKDENGDKSVMFTLTNLHQS ?
Marked response: > 741
